Biological target: Transforming acidic coiled-coil-containing protein 3 (Homo sapiens) (UniProt Q9Y6A5)
Test: inhibitors of ARNT PAS-B binding to TACC3 – biochemical, AlphaScreen, single concentration, primary screen (AID 623870)
Settings: AlphaScreen His-ARNT PAS-B/GST-TACC3 binding, luminescence; at 9.99 µM; TACC3 fragment carries E629A point mutation
In all, about 390,000 compounds went through this assay and about 2,600 (0.67%) were called active.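 How the source made its calls: active means mean inhibition of replicates at least 50% and at least half of replicates each reaching 50%; inconclusive means half or more replicates reach 50% but mean below 50%; inactive means the rest.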 Shown is part of a subset that was picked to be rich in actives.
Outcome codes: active, inactive

COMPOUND: COc1cccc(-c2coc3cc4oc(=O)c(CC(=O)O)c(C)c4cc23)c1
TEST_TARGET: Transforming acidic coiled-coil-containing protein 3 (Homo sapiens) (UniProt Q9Y6A5)
CLASS_NAME: inactive

COMPOUND: CC[C@@H](C)[C@H](NC(=O)CCc1c(C)c2cc3c4c(oc3c(C)c2oc1=O)CCCC4)C(=O)O
TEST_TARGET: Transforming acidic coiled-coil-containing protein 3 (Homo sapiens) (UniProt Q9Y6A5)
CLASS_NAME: inactive

COMPOUND: COC(=O)C1=C(C)Nc2ncnn2C1c1cccnc1 (stereo unspecified)
TEST_TARGET: Transforming acidic coiled-coil-containing protein 3 (Homo sapiens) (UniProt Q9Y6A5)
CLASS_NAME: active

COMPOUND: COc1ccccc1S(=O)(=O)N1CC[C@H]2[C@@H](CO)N(C)c3ccc(C#Cc4ccccc4)cc3[C@H]21
TEST_TARGET: Transforming acidic coiled-coil-containing protein 3 (Homo sapiens) (UniProt Q9Y6A5)
CLASS_NAME: inactive

COMPOUND: O=C(CC1CC1)N1[C@H](CO)[C@@H]2c3ccccc3N(S(=O)(=O)c3ccc(F)cc3)C[C@@H]21
TEST_TARGET: Transforming acidic coiled-coil-containing protein 3 (Homo sapiens) (UniProt Q9Y6A5)
CLASS_NAME: inactive

COMPOUND: Cc1coc2c1c(C)cc1oc(=O)c(CC(=O)NCC(=O)N[C@H](C(=O)O)C(C)C)c(C)c12
TEST_TARGET: Transforming acidic coiled-coil-containing protein 3 (Homo sapiens) (UniProt Q9Y6A5)
CLASS_NAME: inactive

COMPOUND: CCNC(=O)C[C@H]1CC[C@@H](NC(=O)C2CCOCC2)[C@@H](CO)O1
TEST_TARGET: Transforming acidic coiled-coil-containing protein 3 (Homo sapiens) (UniProt Q9Y6A5)
CLASS_NAME: inactive

COMPOUND: Cc1nnc(N/N=C/c2ccccn2)[nH]c1=O
TEST_TARGET: Transforming acidic coiled-coil-containing protein 3 (Homo sapiens) (UniProt Q9Y6A5)
CLASS_NAME: active

COMPOUND: CCOC(=O)c1ccc(Nc2cc3ccccc3c(=O)[nH]2)cc1
TEST_TARGET: Transforming acidic coiled-coil-containing protein 3 (Homo sapiens) (UniProt Q9Y6A5)
CLASS_NAME: active

COMPOUND: CN(C)c1ccc2c(c1)[C@H]1C[C@H](CC(=O)O)O[C@H](CO)[C@H]1O2
TEST_TARGET: Transforming acidic coiled-coil-containing protein 3 (Homo sapiens) (UniProt Q9Y6A5)
CLASS_NAME: inactive

COMPOUND: CCCNC(=O)N(C)C[C@@H]1Oc2ncc(C#CCc3ccccc3)cc2C(=O)N([C@@H](C)CO)C[C@H]1C
TEST_TARGET: Transforming acidic coiled-coil-containing protein 3 (Homo sapiens) (UniProt Q9Y6A5)
CLASS_NAME: inactive

COMPOUND: O=C(Nc1nnc(-c2ccco2)o1)c1ccc(S(=O)(=O)N2CCOCC2)cc1
TEST_TARGET: Transforming acidic coiled-coil-containing protein 3 (Homo sapiens) (UniProt Q9Y6A5)
CLASS_NAME: active

COMPOUND: Cc1[nH]n(-c2cccc(Cl)c2)c(=O)c1/C=N/n1c(C)nc2ccccc2c1=O
TEST_TARGET: Transforming acidic coiled-coil-containing protein 3 (Homo sapiens) (UniProt Q9Y6A5)
CLASS_NAME: active

COMPOUND: CCOC(=O)N1CCN(C(=O)C(C)NC(=O)c2ccco2)CC1 (stereo unspecified)
TEST_TARGET: Transforming acidic coiled-coil-containing protein 3 (Homo sapiens) (UniProt Q9Y6A5)
CLASS_NAME: inactive

COMPOUND: CC1CCN(S(=O)(=O)c2nnc(NC(=O)COc3ccccc3F)s2)CC1
TEST_TARGET: Transforming acidic coiled-coil-containing protein 3 (Homo sapiens) (UniProt Q9Y6A5)
CLASS_NAME: inactive

COMPOUND: O=C(COc1ccccc1F)Nc1nc(-c2ccccn2)cs1
TEST_TARGET: Transforming acidic coiled-coil-containing protein 3 (Homo sapiens) (UniProt Q9Y6A5)
CLASS_NAME: active

COMPOUND: Cc1ccnc(NS(=O)(=O)c2ccc(NC(=O)c3ccc(S(=O)(=O)N4CCOCC4)cc3)cc2)n1
TEST_TARGET: Transforming acidic coiled-coil-containing protein 3 (Homo sapiens) (UniProt Q9Y6A5)
CLASS_NAME: inactive

COMPOUND: COc1ccc(-n2c(O)c(C=NCC(c3ccco3)N3CCCC3)c3ccccc3c2=O)cc1OC (stereo unspecified)
TEST_TARGET: Transforming acidic coiled-coil-containing protein 3 (Homo sapiens) (UniProt Q9Y6A5)
CLASS_NAME: inactive

COMPOUND: CC(C)CN(C(=O)COC(=O)c1ccc2ccccc2c1)c1c(N)n(Cc2ccccc2)c(=O)[nH]c1=O
TEST_TARGET: Transforming acidic coiled-coil-containing protein 3 (Homo sapiens) (UniProt Q9Y6A5)
CLASS_NAME: inactive

COMPOUND: CN1[C@@H]2c3ccc(-c4cccc(F)c4)c(=O)n3C[C@@H]2[C@@H](CO)[C@@H]1C(=O)NC1CCC1
TEST_TARGET: Transforming acidic coiled-coil-containing protein 3 (Homo sapiens) (UniProt Q9Y6A5)
CLASS_NAME: inactive

COMPOUND: N#CC1=C(N)Oc2c(sc3ccccc23)C1c1ccco1 (stereo unspecified)
TEST_TARGET: Transforming acidic coiled-coil-containing protein 3 (Homo sapiens) (UniProt Q9Y6A5)
CLASS_NAME: inactive

COMPOUND: O=C(NCCN1C(=O)C2C3C=CC(C3)C2C1=O)Nc1ccccn1 (stereo unspecified)
TEST_TARGET: Transforming acidic coiled-coil-containing protein 3 (Homo sapiens) (UniProt Q9Y6A5)
CLASS_NAME: inactive

COMPOUND: Cc1ccc(S(=O)(=O)N(C)C[C@@H]2OCCCC[C@@H](C)Oc3ccc(NC(=O)C4CCCCC4)cc3C(=O)N([C@H](C)CO)C[C@H]2C)cc1
TEST_TARGET: Transforming acidic coiled-coil-containing protein 3 (Homo sapiens) (UniProt Q9Y6A5)
CLASS_NAME: inactive

COMPOUND: Cc1oc2c(C)c3oc(=O)c(CC(=O)N[C@@H](CC(C)C)C(=O)N[C@@H](Cc4ccccc4)C(=O)O)c(C)c3cc2c1C
TEST_TARGET: Transforming acidic coiled-coil-containing protein 3 (Homo sapiens) (UniProt Q9Y6A5)
CLASS_NAME: inactive

COMPOUND: COc1ccc(S(=O)(=O)N(C)C[C@@H]2Oc3ncc(C#Cc4ccc(F)cc4)cc3C(=O)N([C@H](C)CO)C[C@@H]2C)cc1
TEST_TARGET: Transforming acidic coiled-coil-containing protein 3 (Homo sapiens) (UniProt Q9Y6A5)
CLASS_NAME: inactive

COMPOUND: COc1ccc(-c2ccc([C@@H]3[C@@H](C#N)N(C(=O)C4CCC4)[C@@H]3CO)cc2)cc1
TEST_TARGET: Transforming acidic coiled-coil-containing protein 3 (Homo sapiens) (UniProt Q9Y6A5)
CLASS_NAME: inactive

COMPOUND: CCOC(=O)c1ccc(NC(=O)C2CC(=O)Nc3nc4ccccc4n32)cc1 (stereo unspecified)
TEST_TARGET: Transforming acidic coiled-coil-containing protein 3 (Homo sapiens) (UniProt Q9Y6A5)
CLASS_NAME: inactive

COMPOUND: CCOc1ccc(N/C(N)=N/c2nc(C)c(C)c(=O)[nH]2)cc1
TEST_TARGET: Transforming acidic coiled-coil-containing protein 3 (Homo sapiens) (UniProt Q9Y6A5)
CLASS_NAME: inactive

COMPOUND: O=C(NC1=CC(=O)c2ccccc2C1=O)c1ccccc1
TEST_TARGET: Transforming acidic coiled-coil-containing protein 3 (Homo sapiens) (UniProt Q9Y6A5)
CLASS_NAME: active

COMPOUND: C[C@@H]1CN([C@@H](C)CO)C(=O)c2cccc(N(C)C)c2O[C@@H]1CN(C)S(=O)(=O)c1ccccc1
TEST_TARGET: Transforming acidic coiled-coil-containing protein 3 (Homo sapiens) (UniProt Q9Y6A5)
CLASS_NAME: inactive

COMPOUND: Cc1c(CC(=O)NCC(=O)NCC(=O)O)c(=O)oc2cc3oc4c(c3cc12)CCCC4
TEST_TARGET: Transforming acidic coiled-coil-containing protein 3 (Homo sapiens) (UniProt Q9Y6A5)
CLASS_NAME: active
